Test system: SF-295
Assay: NCI tumour cell line growth inhibition, 48 h
Active and inactive are the calls of the source. Rule as the data show it: active = GI50 up to about 1.1 µM and inactive = higher.
attribute-measured: GI50

1. Cc1cc(O)c(C(c2ccncc2)c2c(O)cc(C)[nH]c2=O)c(=O)[nH]1: > 100 µM (inactive)
2. CC(C)N(C(=O)C12C3C4C1(I)C1C2C3(I)C41C(=O)N(C(C)C)C(C)C)C(C)C (stereo not given): > 100 µM (inactive)
3. O=C1C(=Cc2ccc(F)cc2)C(=O)c2ccccc21: > 100 µM (inactive)
4. CC1(C)CC(=O)c2c(nc3c(ccc4ccccc43)c2-c2ccc(NC(=O)CCCCC(=O)Nc3ccc(-c4c5c(nc6c4ccc4ccccc46)CC(C)(C)CC5=O)cc3)cc2)C1: 19.6 µM (inactive)
5. C=CCc1cc(-c2cc(CC=C)c(O)c(CN(CCCl)CCCl)c2)cc(CN(CCCl)CCCl)c1O: 13 µM (inactive)
6. CCNC(=S)N/N=C/c1cc([N+](=O)[O-])ccc1O: 35.6 µM (inactive)
7. S=C1c2cc(Cl)ccc2N=C(NC2CCCC2)C2CSCN12 (stereo not given): > 75.9 µM (inactive)
8. Clc1cc(Cl)c2ns[s+]c2c1Cl: > 100 µM (inactive)
9. CSc1nnc(COc2ccc(Cl)cc2)o1: > 100 µM (inactive)
10. CC(=O)c1ccc2c(c1)CC1(C2)Cc2ccc3c(c2C1=O)CCC3 (stereo not given): 31 µM (inactive)

* * *

System: OVCAR-4
Experiment: NCI tumour cell line growth inhibition, 48 h
The source made the active and inactive calls. Cut-off read from the data, not from the text of the source: active = GI50 up to about 1.1 µM and inactive = higher.
attribute-measured: GI50

1. CCNC(=S)N/N=C/c1cc([N+](=O)[O-])ccc1O: 15.6 µM (inactive)
2. COC12C(COC(=O)NCCO)C3=C(C(=O)C(C)=C(N)C3=O)N1CC1NC12 (stereo not given): 65.8 µM (inactive)
3. CCCCCNC(=O)C1C(=O)N(CCCCC)C(=O)/C1=N\N (stereo not given): 61.8 µM (inactive)
4. OC(CC(CC(O)(C(F)(F)F)C(F)(F)F)=NN=C(CC(O)(C(F)(F)F)C(F)(F)F)CC(O)(C(F)(F)F)C(F)(F)F)(C(F)(F)F)C(F)(F)F: > 10 µM (inactive)
5. COC(=O)C(Cc1ccccc1)NC(=O)c1ccc(CNC(=S)NCc2cccc(CNC(=S)NCc3ccccc3)c2)cc1 (stereo not given): > 32.1 µM (inactive)
6. Cc1cc(N(CCC#N)CCC#N)ccc1/C=C\C(=O)Nc1ccccc1: 62.4 µM (inactive)
7. COc1ccc(CCCC(=O)O)c(C)c1: 48.2 µM (inactive)
8. CCCNC(=O)C(C)(Cl)C(=O)c1ccccc1O (stereo not given): > 100 µM (inactive)
9. CC(C)(C)C1=C(Br)C(O)(C(C)(C)C)OP1(=O)c1ccccc1 (stereo not given): > 100 µM (inactive)
10. Cc1ccc2c(c1)-c1nc(N)c(C#N)c(-c3ccc(Cl)cc3)c1CCS2(=O)=O: 52 µM (inactive)

* * *

Recorded GI50 values for a group of compounds are listed next.
Test system: SN12C
Experiment: NCI tumour cell line growth inhibition, 48 h
The source made the active and inactive calls. No stated cut-off is given here; in the data, active = GI50 up to about 1.1 µM and inactive = higher.
attribute-measured: GI50

1. COc1ccccc1NC(=O)/C(=C/c1ccccc1)C(C)=O: 42.2 µM (inactive)
2. CCc1cccc(C(C)C)c1NC(=O)C(=O)CC(=O)c1c(C)[n+]([O-])c2ccccc2[n+]1[O-]: > 100 µM (inactive)
3. CCOP(=O)(/C=C\n1ccc(N)nc1=O)OCC: > 100 µM (inactive)
4. C1=CC2(C=CC13O[C@H](C1CCCCC1)[C@@H](C1CCCCC1)O3)O[C@H](C1CCCCC1)[C@@H](C1CCCCC1)O2: > 50 µM (inactive)
5. COc1ccc(NC(=O)CC/C(CC(=O)c2ccccc2Cl)=N\Nc2nnc(C)n2N)cc1: > 100 µM (inactive)
6. Cc1c2c(c(C)c3c[n+](C)ccc13)Oc1ccccc1O2: 1.77 µM (inactive)
7. NC(=O)c1ccc(C(=O)Nc2ccc([As](=O)(O)O)cc2)cc1: > 100 µM (inactive)
8. COCCOCCOC1=CC(=O)c2c(O)ccc(O)c2C1=O: 1.96 µM (inactive)
9. CC1(C)CCCCCC(C)(CCCCCCCCCCCO)C1=O (stereo unspecified): 16.1 µM (inactive)
10. CC(=O)OCC1=C(C)C(OC(=O)C(OC(C)=O)[C@@H](NC(=O)c2ccccc2)c2ccccc2)CCC1(C)C (stereo partly specified): > 100 µM (inactive)
11. OCC1OC(n2ccc3cnccc32)CC1O (stereo unspecified): > 100 µM (inactive)
12. O=c1c2ccccc2nc(-c2ccccc2Cl)n1NC1OC(CO)C(O)C(O)C1O (stereo unspecified): > 100 µM (inactive)
13. N#Cc1ccc(Sc2nc3ccccc3[nH]2)cc1: > 100 µM (inactive)
14. C#C[C@]1(O)CC[C@H]2[C@@H]3CCC4=C/C(=N/CCOC(=O)c5cccc6cc7ccccc7nc56)CC[C@@H]4[C@H]3CC[C@@]21C: 49.1 µM (inactive)
15. O=C(O)Cc1cccnc1: > 100 µM (inactive)
16. c1ccc(SC(Sc2ccccc2)=C2CCC2)cc1: > 100 µM (inactive)
17. C=C1C(OC(=O)/C=C/c2ccccc2)CC(OC(C)=O)C2(C)C1CC1CC(OC(C)=O)C(C)=C(C(OC(C)=O)C2OC(C)=O)C1(C)C (stereo unspecified): > 100 µM (inactive)
18. C=C(Cl)C(Cl)(CBr)CCCC(C)(C)Cl (stereo unspecified): 60.8 µM (inactive)
19. O=C(NC12CC3CC(CC(C3)C1)C2)n1cnc2c(Cl)ncnc21: > 100 µM (inactive)
20. CN1CC(C(=O)C2C(=O)c3ccccc3C2=O)C(=O)C(=O)C(C(=O)C2C(=O)c3ccccc3C2=O)C1 (stereo unspecified): > 100 µM (inactive)
21. O=C(CCCn1ccnc1[N+](=O)[O-])NCCn1ccnc1: > 100 µM (inactive)

* * *

Test system: UACC-257
Test: NCI tumour cell line growth inhibition, 48 h
Activity calls are given as the source filed them. No stated cut-off is given here; in the data, active = GI50 up to about 1.1 µM and inactive = higher.
attribute-measured: GI50

1. C[C@]12CCC(=O)[C@@H](CCC3=CC(=O)C=CC3=O)[C@@H]1CCC2=O: 17.8 µM (inactive)
2. N#Cc1c(C#N)c(-c2ccco2)n(-c2ccccc2)c1N: > 100 µM (inactive)
3. O=C1/C(=N/c2ccccc2)Oc2cc(O)ccc21: > 100 µM (inactive)
4. Cc1cc(N(CCC#N)S(=O)(=O)c2ccccc2)ccc1/C=N\c1cccc(C(=O)O)c1: > 100 µM (inactive)
5. O=C(c1cccs1)N(C(=S)OC12CC3CC(CC(C3)C1)C2)c1ccccc1: 39.5 µM (inactive)

* * *

The entries below are paired with their reported GI50.
System: SN12C
Test: NCI tumour cell line growth inhibition, 48 h
Active and inactive are the calls of the source. Cut-off read from the data, not from the text of the source: active = GI50 up to about 1.1 µM and inactive = higher.
attribute-measured: GI50

1. N#CC1(CCCI)CCCC1: 12.3 µM (inactive)
2. O=C(NCCCCCCNC(=O)NC1OCC(O)C(O)C1O)NC1OCC(O)C(O)C1O (stereo not given): > 100 µM (inactive)
3. CC1CNC(c2ccc(CN3CCC(CCCC4CCN(Cc5ccc(C6=NC(C)CN6)cc5)CC4)CC3)cc2)=N1 (stereo not given): 84.7 µM (inactive)
4. Cc1nnc2sc(-c3ccc([N+](=O)[O-])o3)nn12: 11.6 µM (inactive)
5. O=C(Nc1ccccc1)c1cc(S(=O)(=O)Nc2n[nH]c(=O)n2-c2ccccc2)c(S)cc1Cl: > 100 µM (inactive)

* * *

Tested on: MDA-MB-231
Test: NCI tumour cell line growth inhibition, 48 h
Active and inactive are the calls of the source. Rule as the data show it: active = GI50 up to about 1.1 µM and inactive = higher.
Labels: T for active, F for inactive

1. O=Cc1[nH]c(=O)[nH]c(=O)c1CCl: F
2. Cc1c2c(c(C)c3c[n+](C)ccc13)Oc1ccccc1O2: F
3. CC1(C)CCc2c(ccc(C(=O)/C=C/c3ccc(O)cc3)c2O)O1 [DORSMANNIN A]: F
4. CC(C)OC(=O)[C@@H]1OC(C)(C)O[C@H]1C(=O)OC(C)C: F
5. COCCOCCOC1=CC(=O)c2c(O)ccc(O)c2C1=O: F
6. COc1cc(NCc2ccc3n2-c2ccccc2OC3)cc(OC)c1OC: F
7. C[N+]1(c2ccccc2)C=C(c2ccccc2)SC1=S (configuration not stated): F
8. Oc1c(OCc2nnc(CCCCCCCCc3nnc(COc4ccc5ccccc5c4O)n3Nc3ccccc3)n2Nc2ccccc2)ccc2ccccc12: F
9. CCOC(=O)c1c(-c2ccccc2)oc(=O)c(Cc2cccc3cccnc23)c1-c1ccccc1: F
10. CCOC(=O)CN1C(=O)NC(C)(c2ccccc2)C1=O (configuration not stated): F
11. N#CC1=C(N)N(c2ccccc2)C(c2ccccc2)C1(C#N)C#N (configuration not stated): F
12. C=C1CC(COc2ccc3c(C)cc(=O)oc3c2)(c2ccccc2)OC1=O (configuration not stated): F
13. COc1ccc(NCC(=O)Nn2c(-c3ccccc3)nc3ccccc3c2=O)cc1: F
14. C=C(Br)C(Br)(CCl)CCC(Cl)C(C)C.C=C(Cl)C(Br)(CCl)CCC(Cl)C(C)C (configuration not stated): F
15. Cc1ccc(Cl)c2[nH]c(-c3ccccc3)cc(=O)c12: F
16. O[C@H]1[C@H](O)[C@@H](O)[C@@]2(O)CC[C@@H]1N2: F
17. Cc1nc2cc(F)c(F)cc2[nH]c1=O: F
18. CSc1ncnc2c1cnn2Cc1cn(COCCO)nn1: F
19. C[C@]12CCC(=O)[C@@H](CCC3=CC(=O)C=CC3=O)[C@@H]1CCC2=O: F
20. C=CCN1C(=O)/C(=C/c2cccs2)N=C1SC/C=C/C: F
21. Oc1cc(-c2cccc(OCc3ccccc3)c2)nc2cc3c(cc12)OCO3: T
22. C[N+]1(C)CC[N+](C)(C)[BH-]1C(O)O: F
23. O=C1/C(=N/c2ccccc2)Oc2cc(O)ccc21: F
24. Cn1c2ccccc2c2c3c(c4c5ccccc5n(C)c4c21)C(=O)NC3=O: F
25. CC(=O)OCC1OC(n2c(-c3ccc(Cl)cc3)cc(-c3ccccc3)c(C#N)c2=S)C(OC(C)=O)C(OC(C)=O)C1OC(C)=O (configuration not stated): F
26. NC(=O)c1ccc(C(=O)Nc2ccc([As](=O)(O)O)cc2)cc1: F
27. O=C(Nc1ccccc1)c1cc(S(=O)(=O)Nc2n[nH]c(=O)n2-c2ccccc2)c(S)cc1Cl: F
28. COC(=O)[C@@H]1[C@@H]2NC(=S)N[C@@]1(C)Oc1ccccc12: F
29. Cn1c2ccccc2c2ccc3c(c21)C(=O)c1ccc2c4ccccc4n(C)c2c1C3=O: F
30. CC1=NN(c2nc(N)nc(/C(C#N)=C/c3ccc([N+](=O)[O-])o3)n2)C(C)(C)C1: F
31. O=c1c(-c2ccccc2)c(SCCCN2CCCCC2)n(-c2ccccc2)c(=S)n1-c1ccccc1: F
32. C=C(CN1CC2C[C@](C(=O)OC)(c3cc4ccccc4[nH]3)C1C(OC)C2OC)S(=O)(=O)c1ccccc1 (some centres not stated): F
33. CCCC/N=C(/c1ccccc1)N1CCOCC1: F
34. NC1=CN(Cc2ccccc2)C2=N/C(=C\c3ccco3)C(=O)N12: F
35. CC(C)(C)C1=C(Br)C(O)(C(C)(C)C)OP1(=O)c1ccccc1 (configuration not stated): F
36. COP(=O)(OC)[C@@](O)(c1ccccc1)[C@@H](O)[C@H](O)c1ccccc1: F
37. C[C@H]1[C@H]2[C@H](C[C@@]3(C)C4=CC[C@H]5C(C)(C)[C@@H](OC6OCC(O)C(O)C6O)CC[C@@]56C[C@@]46CC[C@]23C)O[C@@]2(O)[C@@H]1OC(C)(C)[C@H]2O (some centres not stated): F
38. Cc1nnc2sc(-c3ccc([N+](=O)[O-])o3)nn12: F
39. O=C(O)Cc1cccnc1: F
40. COC1(c2ccccc2)N=C(S)NN=C1c1ccccc1 (configuration not stated): F
41. Cc1cc(=O)oc2c(CNC(C(=O)O)C(C)O)c(O)ccc12 (configuration not stated): F
42. c1ccc2c(c1)nc1n2sc2nc3ccccc3n21: F
